TARGET OR TEST SYSTEM: Proteasome Macropain subunit MB1 (Homo sapiens)
Sequence (P28074 whole entry): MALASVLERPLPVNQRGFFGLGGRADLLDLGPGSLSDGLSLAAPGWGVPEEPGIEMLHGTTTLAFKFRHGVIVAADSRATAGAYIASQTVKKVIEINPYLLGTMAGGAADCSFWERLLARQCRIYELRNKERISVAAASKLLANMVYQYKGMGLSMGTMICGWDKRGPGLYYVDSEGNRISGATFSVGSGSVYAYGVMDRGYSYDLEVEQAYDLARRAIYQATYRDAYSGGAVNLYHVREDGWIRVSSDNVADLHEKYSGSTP
EXPERIMENT: Inhibition of 20S proteasome beta5 subunit (unknown origin) using Suc-LLVY-AMC as flurogenic substrate measured after 1 hr by fluorescence based analysis
TEST SETTINGS: read-out: pIC50 (converted)
ASSAY METRIC: log10 of IC50 (log10 of the value in nM)
Note the log scale: values are log10 of IC50 expressed in nM.

Some compounds with recorded log10 of IC50:
INSERT INTO results (compound_smiles, target_or_test_system, value) VALUES
  ('CC(C)C[C@H](NC(=O)[C@@H](NC(=O)c1cc(Cl)ccc1Cl)C(C)C)B(O)O', 'Proteasome Macropain subunit MB1 (Homo sapiens)', -0.15),
  ('Cc1cncc(C(=O)N[C@@H](Cc2ccccc2)C(=O)N[C@@H](CC(C)C)B(O)O)n1', 'Proteasome Macropain subunit MB1 (Homo sapiens)', 1.51),
  ('CC(C)C[C@H](NC(=O)[C@H](Cc1ccccc1)NC(=O)c1ccccn1)B(O)O', 'Proteasome Macropain subunit MB1 (Homo sapiens)', 0.83);

QUERY: Return log10 of IC50 for the following compound: CC[C@@H](C)[C@H](NC(=O)c1cc(Cl)ccc1Cl)C(=O)N[C@@H](CC(C)C)B(O)O
RESULT: 0.51

QUERY: Return log10 of IC50 for the following compound: COc1ccc(F)cc1C(=O)N[C@@H](Cc1ccccc1)C(=O)N[C@@H](CC(C)C)B(O)O
RESULT: 0.65

QUERY: Return log10 of IC50 for the following compound: CC(C)C[C@H](NC(=O)[C@H](Cc1ccccc1)NC(=O)c1cnccn1)C(=O)O
RESULT: 1.70

QUERY: Return log10 of IC50 for the following compound: CC(C)C[C@H](NC(=O)[C@H](Cc1ccccc1)NC(=O)c1cc(Cl)ccc1F)B(O)O
RESULT: 0.48

QUERY: Return log10 of IC50 for the following compound: CC(C)C[C@H](NC(=O)[C@H](CC(C)C)NC(=O)c1cc(Cl)ccc1Cl)B(O)O
RESULT: 0.61
